assayedTarget: Alpha-2C adrenergic receptor (Homo sapiens)
Sequence (whole entry): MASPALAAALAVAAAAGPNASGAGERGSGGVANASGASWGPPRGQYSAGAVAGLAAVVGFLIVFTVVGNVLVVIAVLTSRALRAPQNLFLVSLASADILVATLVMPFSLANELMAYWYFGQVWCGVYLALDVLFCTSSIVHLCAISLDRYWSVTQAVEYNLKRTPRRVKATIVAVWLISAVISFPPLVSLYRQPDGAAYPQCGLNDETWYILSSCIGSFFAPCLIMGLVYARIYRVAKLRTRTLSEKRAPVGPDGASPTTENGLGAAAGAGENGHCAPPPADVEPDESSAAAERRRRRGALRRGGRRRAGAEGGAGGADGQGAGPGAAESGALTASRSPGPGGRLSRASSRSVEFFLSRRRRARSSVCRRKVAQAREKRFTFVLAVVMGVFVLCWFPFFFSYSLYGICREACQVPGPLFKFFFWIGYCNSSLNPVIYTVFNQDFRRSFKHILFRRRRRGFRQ
measurementProtocol: Efficacy as percentage of the maximal effect observed for nonselective agonist UK-14304 in CHO cells expressing human Alpha-2C adrenergic receptor
Assay type: functional, cell-based
Max values by entry
Put your answer as a value accompanied by its unit after it.

INSERT INTO results (molecule, endpointname, valuemeasured) VALUES
  ('CS(=O)(=O)Nc1ccc(F)c([C@@H](O)CN)c1 [NS-49]', 'Max', '87%'),
  ('O=S1(=O)CCCc2cccc(NCC3=NCCN3)c21', 'Max', '69%'),
  ('COc1ccc(SC)c(NCC2=NCCN2)c1', 'Max', '74%'),
  ('CCSc1ccccc1NCC1=NCCN1', 'Max', '101%'),
  ('CS(=O)(=O)c1ccc(Cl)cc1NCC1=NCCN1', 'Max', '81%');

# input Specify Max for "CS(=O)(=O)c1ccccc1NCC1=NCCN1" and stop.
# output 68%

# input Specify Max for "CS(=O)(=O)c1cc(F)ccc1NCC1=NCCN1" and stop.
# output 32%
